# Test system: primary rat mixed cortical cells
# assay-comment: In vitro myelination assay (MBP positive myelin strands, fold myelin pixels above background)
# Assay type: cell-based
# test-parameters: Rattus norvegicus, 1.0 μM compound, relative to baseline of no added compound; read-out: Fold myelin pixels above background
Kindly state fold induction at 1 µM for each of the entries shown.

# count of solved cases: 5
Cc1cc(Nc2ncn(-c3ccccc3)n2)cc(Nc2ncc(C)s2)c1
10 to 100
Cc1cc(Nc2ncn(-c3cc(F)cc(F)c3)n2)nc(N2CC(C(C)(C)O)C2)c1
≤ 1
Cc1cc(Nc2ncn(-c3cccc(C(F)(F)F)c3)n2)cc(OCCn2cccn2)c1
1 to 10
Cc1cc(Nc2ncn(-c3cc(F)cc(F)c3)n2)cc(N2CC(N3CCOC[C@H]3C)C2)c1
10 to 100
Cc1cc(CN2CCN(C3COC3)CC2)c(F)c(Nc2ncn(-c3cc(F)cc(F)c3)n2)c1
1 to 10

# evaluate next
Challenge: Annotate the compound `COc1c(F)cc(-n2cnc(Nc3cc(C)cc(N4CC(N5CCOCC5)C4)c3)n2)cc1F` with its measured fold induction at 1 µM.
Response given: 10 to 100
